Test system: M19-MEL melanoma
experiment description: NCI tumour cell line growth inhibition, 48 h
Assign TGI to each entry below.

Field: TGI. Fill in for each record below.
1. Cc1nc2c(nc1C)C(=O)c1ccccc1C2=O
2. CCOC(=O)C(Sc1ccccc1)c1c(OC)cc(=O)oc1/C=[N+](/[O-])c1ccc(N(C)C)cc1 (stereo unspecified)
3. C/C(CCn1[nH]c(=O)ccc1=O)=N\O
4. CC(=O)OC(C)C(=O)C1c2cccc(O)c2C(=O)c2c(O)cc(C)cc21 (stereo unspecified)

[reply]
1.07 µM
37.5 µM
> 100 µM
1.23 µM

Field: TGI. Fill in for each record below.
1. O=C1N(Cl)C(=O)C(c2ccc(Cl)cc2)(c2ccc(Cl)cc2)N1Cl
2. CC(=O)N1[C@H](C(=O)O)CS[C@H]1c1ccncc1
3. CC(C)=CCCc1c(C)ccc2c1C(=O)C(=O)C(C(C)C)=C2
4. CC(=O)C(CN(C(C)C)C(C)C)C(c1ccccc1)c1c(O)c2ccccc2oc1=O (stereo unspecified)
5. COc1cc2cnc3c4cc(OC(C)C)c(OC)cc4ccc3c2cc1OC
6. FC(F)(F)c1ccc(C2SCc3nc4ccccc4n32)cc1 (stereo unspecified)
7. CCOC(=O)c1ncn2c1[nH]c(=S)c1ccccc12

[reply]
["> 100 µM", "> 100 µM", "7.87 µM", "> 100 µM", "> 100 µM", "> 100 µM", "> 100 µM"]
